Each recorded value in this set is attributed to ChEMBL document CHEMBL1150963.

Provide the recorded inhibition for the entries that follow.
# studyTarget: Phospholipase A2 (Homo sapiens) (UniProt P04054)
# Sequence (P04054 23-148 limits assumed): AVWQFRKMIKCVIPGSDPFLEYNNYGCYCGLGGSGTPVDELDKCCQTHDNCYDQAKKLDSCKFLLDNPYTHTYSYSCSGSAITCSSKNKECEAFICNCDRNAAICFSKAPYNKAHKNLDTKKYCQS
# assayMethodText: Inhibition of PLA2 at 50 ug/ml
Express it in %; write the number only.

Given item C#C/C=C\CCCCCCCCCCCCC/C=C/C(O)CCCC/C=C\CCCCC#C[C@H](O)C#CCCCCCC/C=C/[C@@H](O)C#C (some centres undefined) , the value recorded as its inhibition is 36

Given item C#C/C=C\CCCCCCCCCCCCCC/C=C\CCC/C=C/C(O)CCCCC#C[C@H](O)C#CCCCCCC/C=C/[C@@H](O)C#C (some centres undefined) , the value recorded as its inhibition is 48

Given item C#C/C=C\CCCCCCCCCCCCCCC(O)/C=C/CCC/C=C\CCCCC#C[C@H](O)C#CCCCCCC/C=C/[C@@H](O)C#C (some centres undefined) , the value recorded as its inhibition is 32

Given item C#C/C=C\CCCCCCCCCCCCCC/C=C\CCCCC(O)/C=C/CCCC#C[C@H](O)C#CCCCCCC/C=C/[C@@H](O)C#C (some centres undefined) , the value recorded as its inhibition is 25
